Every entry's value here was drawn from patent US6472389B1.

As shown below, each of these molecules has a reported melting point value.

molecule: CCc1c(C(=O)C(N)=O)c2c(OCC(=O)OC)cc(COc3ccc(OC)c(OC)c3)nn2c1Cc1ccccc1
melting point: 176 to 179 °C

molecule: Cc1c(C(=O)C(N)=O)c2c(OCC(=O)O)cc(Cc3ccccc3)nn2c1C
melting point: 232 to 233 °C (dec.)

molecule: CCc1c(C(=O)C(N)=O)c2c(OCC(=O)OC)cc(COc3ccc(F)cc3)nn2c1Cc1ccccc1
melting point: 178 to 179 °C

molecule: CCc1cc(OCC(=O)OC)c2c(C(=O)C(N)=O)c(CC)c(Cc3ccccc3)n2n1
melting point: 183 to 185 °C

molecule: CCc1c(C(=O)C(N)=O)c2c(OCC(=O)O)cc(-c3ccc(F)cc3)nn2c1Cc1ccccc1 [Compound I-63]
melting point: 250 to 253 °C (dec.)

molecule: CCc1c(C(=O)C(N)=O)c2c(OCC(=O)O)cc(-c3ccc(F)cc3)nn2c1Cc1ccccc1 [Compound I-62]
melting point: 245 to 248 °C (dec.)

molecule: CCc1c(C(=O)C(N)=O)c2c(OCC(=O)O)cc(COc3ccc(F)cc3)nn2c1Cc1ccccc1
melting point: 215 to 216 °C

###

assay.target: recombinant human secretory phospholipase A2 (Homo sapiens, UniProt P14555)
assay.name: Inhibition test of human secretory phospholipase A2 (chromogenic assay, 96 well microtiterplate)
assay.conditions: sPLA2 50 ng/well, 40° C., 30 minutes, OD 405 nm, substrate 1,2-bis(heptanoylthio)-1,2-dideoxy-sn-glycero-3-phospholylcholine
Under this convention, True denotes IC50 strictly below 0.2 µM and False denotes IC50 at or above 0.2 µM.

compound: CCc1c(C(=O)C(N)=O)c2c(OCC(=O)O)cc(C(F)(F)F)nn2c1Cc1ccc(F)cc1 [Compound I-24]
group: True
//
compound: CCc1c(C(=O)C(N)=O)c2c(OCC(=O)O)cc(C)nn2c1Cc1cccc(Oc2ccccc2)c1 [Compound I-66]
group: True
//
compound: CCCc1cc(OCC(=O)OC)c2c(C(=O)C(N)=O)c(C)c(Cc3ccccc3)n2n1 [Compound I-41]
group: True
//
compound: CCc1c(C(=O)C(N)=O)c2c(OCC(=O)OC)cc(C3CCCCC3)nn2c1Cc1ccccc1 [Compound I-37]
group: False
//
compound: CCc1c(C(=O)C(N)=O)c2c(OCC(=O)OC)cc(CN3C(=O)CCC3=O)nn2c1Cc1ccccc1 [Compound I-49]
group: False
//
compound: COC(=O)COc1cc(C)nn2c(Cc3ccc(-c4ccccc4)cc3)c(C)c(C(=O)C(N)=O)c12 [Compound I-53]
group: False
//
compound: CCc1cc(OCC(=O)O)c2c(C(=O)C(N)=O)c(CC)c(Cc3ccccc3)n2n1 [Compound I-18]
group: True

###

As shown below, each of these molecules has a reported melting point value.

smiles: CCc1c(C(=O)C(N)=O)c2c(OCC(=O)OC)cc(C)nn2c1Cc1cccc(Oc2ccccc2)c1
melting point: 201 to 202 °C
//
smiles: CSCc1cc(OCC(=O)O)c2c(C(=O)C(N)=O)c(C)c(Cc3ccccc3)n2n1
melting point: 228 to 229 °C (dec.)
//
smiles: COC(=O)COc1cc(CSC)nn2c(Cc3ccccc3)c(C)c(C(=O)C(N)=O)c12
melting point: 210 to 211 °C
//
smiles: CCc1c(C(=O)C(N)=O)c2c(OCC(=O)OC)cc(COc3ccccc3)nn2c1Cc1ccccc1
melting point: 185 to 186 °C
//
smiles: COC(=O)COc1cc(Cc2ccccc2)nn2c(Cc3ccccc3)c(C)c(C(=O)C(N)=O)c12
melting point: 204 to 206 °C
//
smiles: CCc1cc(OCC(=O)OC)c2c(C(=O)C(N)=O)c(C)c(Cc3ccccc3)n2n1
melting point: 194 to 196 °C
//
smiles: CCCc1cc(OCC(=O)O)c2c(C(=O)C(N)=O)c(C)c(Cc3ccccc3)n2n1
melting point: 204 to 205 °C
//
smiles: Cc1cc(OCC(=O)OCCN2CCOCC2)c2c(C(=O)C(N)=O)c(C)c(Cc3ccccc3)n2n1
melting point: 160 to 161 °C

###

As shown below, each of these compounds has a reported pIC50 value.
assay.target: recombinant human secretory phospholipase A2 (Homo sapiens, UniProt P14555)
assay.name: Inhibition test of human secretory phospholipase A2 (chromogenic assay, 96 well microtiterplate)
assay.conditions: sPLA2 50 ng/well, 40° C., 30 minutes, OD 405 nm, substrate 1,2-bis(heptanoylthio)-1,2-dideoxy-sn-glycero-3-phospholylcholine
pIC50: −log10 of the molar value.

compound: CCc1c(C(=O)C(N)=O)c2c(OCC(=O)OC)cc(-c3ccccc3)nn2c1Cc1ccccc1F [Compound I-15]
pIC50: 7.01

compound: CCc1c(C(=O)C(N)=O)c2c(OCC(=O)OC)cc(-c3ccccc3)nn2c1Cc1ccc(F)cc1 [Compound I-13]
pIC50: 6.62

compound: Cc1c(C(=O)C(N)=O)c2c(OCC(=O)O)cc(-c3ccccc3)nn2c1Cc1ccccc1 [Compound I-17]
pIC50: 8.15

compound: Cc1cc(OCC(=O)O)c2c(C(=O)C(N)=O)c(C)c(Cc3ccccc3)n2n1 [Compound I-16]
pIC50: 7.92

compound: CCc1c(C(=O)C(N)=O)c2c(OCC(=O)O)ccnn2c1Cc1ccccc1 [Compound I-3]
pIC50: 7.89

compound: CCc1c(C(=O)C(N)=O)c2c(OCC(=O)O)cc(C)nn2c1Cc1ccc(F)cc1 [Compound I-22]
pIC50: 7.66

compound: CCc1c(C(=O)C(N)=O)c2c(OCC(=O)OCc3ccccc3)cc(CN=[N+]=[N-])nn2c1Cc1ccccc1 [Compound I-50]
pIC50: 6.28

compound: Cc1c(C(=O)C(N)=O)c2c(OCC(=O)O)cc(Cc3ccccc3)nn2c1C [Compound I-81]
pIC50: 5.09

###

As shown below, each of these compounds has a reported IC50 value.
assay.target: recombinant human secretory phospholipase A2 (Homo sapiens)
Sequence (P14555 21-144): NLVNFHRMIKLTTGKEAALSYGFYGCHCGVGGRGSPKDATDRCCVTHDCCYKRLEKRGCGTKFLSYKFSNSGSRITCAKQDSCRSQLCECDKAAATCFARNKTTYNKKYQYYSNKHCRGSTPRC
assay.name: Inhibition test of human secretory phospholipase A2 (chromogenic assay, 96 well microtiterplate)
assay.conditions: sPLA2 50 ng/well, 40° C., 30 minutes, OD 405 nm, substrate 1,2-bis(heptanoylthio)-1,2-dideoxy-sn-glycero-3-phospholylcholine

compound: CCc1c(C(=O)C(N)=O)c2c(OCC(=O)O)cc(-c3ccccc3)nn2c1Cc1ccc(F)cc1
IC50: 7 nM
//
compound: CCc1c(C(=O)C(N)=O)c2c(OCC(=O)O)cc(C)nn2c1Cc1ccccc1-c1ccc(F)cc1
IC50: 8 nM
//
compound: CCc1c(C(=O)C(N)=O)c2c(OCC(=O)O)cc(COc3ccc(OC)c(OC)c3)nn2c1Cc1ccccc1
IC50: 10 nM
//
compound: CCc1c(C(=O)C(N)=O)c2c(OCC(=O)O)cc(-c3ccc(F)cc3)nn2c1Cc1ccccc1 [Compound I-62]
IC50: 12 nM

###

molecule: CCCc1cc(OCC(=O)OC)c2c(C(=O)C(N)=O)c(CC)c(Cc3ccccc3)n2n1 [Compound I-9]
melting point: 204 to 206 °C

molecule: CCc1c(C(=O)C(N)=O)c2c(OCC(=O)OC)cc(C)nn2c1Cc1ccccc1 [Compound I-4]
melting point: 225 to 226 °C

molecule: CCc1c(C(=O)C(N)=O)c2c(OCC(=O)O)cc(COc3ccc(OC)c(OC)c3)nn2c1Cc1ccccc1 [Compound I-77]
melting point: 204 to 206 °C

molecule: CCc1c(C(=O)C(N)=O)c2c(OCC(=O)OC)cc(C(C)C)nn2c1Cc1ccccc1 [Compound I-10]
melting point: 174 to 175 °C

molecule: Cc1cc(OCC(=O)O)c2c(C(=O)C(N)=O)c(C)c(Cc3ccccc3)n2n1 [Compound I-16]
melting point: 271 to 272 °C (dec.)

molecule: Cc1c(C(=O)C(N)=O)c2c(OCC(=O)O)cc(Cc3ccccc3)nn2c1Cc1ccccc1 [Compound I-72]
melting point: 245 to 247 °C (dec.)

molecule: CCc1c(C(=O)C(N)=O)c2c(OCC(=O)OC)cc(C)nn2c1Cc1ccccc1-c1ccccc1 [Compound I-35]
melting point: 187 to 189 °C

molecule: CCc1c(C(=O)C(N)=O)c2c(OCC(=O)O)cc(C)nn2c1Cc1ccc(F)cc1 [Compound I-22]
melting point: 238 to 240 °C

molecule: CCCc1cc(OCC(=O)OC)c2c(C(=O)C(N)=O)c(C)c(Cc3ccccc3)n2n1 [Compound I-41]
melting point: 210 to 211 °C

molecule: CCc1c(C(=O)C(N)=O)c2c(OCC(=O)OCc3ccccc3)cc(CN3CCOCC3)nn2c1Cc1ccccc1 [Compound I-30]
melting point: 183 to 184 °C

molecule: CCc1c(C(=O)C(N)=O)c2c(OCC(=O)O)cc(C(F)(F)F)nn2c1Cc1ccc(F)cc1 [Compound I-24]
melting point: 248 to 250 °C

molecule: CCc1c(C(=O)C(N)=O)c2c(OCC(=O)O)cc(COc3ccccc3)nn2c1Cc1ccccc1 [Compound I-57]
melting point: 218 to 220 °C (dec.)

molecule: CCc1c(C(=O)C(N)=O)c2c(OCC(=O)OC)cc(-c3ccccc3)nn2c1Cc1ccc(F)cc1 [Compound I-13]
melting point: 253 to 255 °C

molecule: CCc1c(C(=O)C(N)=O)c2c(OCC(=O)OC)cc(CN3C(=O)CCC3=O)nn2c1Cc1ccccc1 [Compound I-49]
melting point: 188 to 189 °C

molecule: Cc1cc(OCC(=O)O)c2c(C(=O)C(N)=O)c(C)c(Cc3ccc(-c4ccccc4)cc3)n2n1 [Compound I-83]
melting point: 271 to 276 °C (dec.)

molecule: COCc1cc(OCC(=O)OC)c2c(C(=O)C(N)=O)c(C)c(Cc3ccccc3)n2n1 [Compound I-44]
melting point: 228 to 229 °C (dec.)

molecule: CCc1c(C(=O)C(N)=O)c2c(OCC(=O)O)cc(CN=[N+]=[N-])nn2c1Cc1ccccc1 [Compound I-80]
melting point: 199 to 200 °C (dec.)

molecule: CCc1c(C(=O)C(N)=O)c2c(OCC(=O)OC)cc(COc3ccc(OC)cc3)nn2c1Cc1ccccc1 [Compound I-46]
melting point: 167 to 168 °C

molecule: CCc1c(C(=O)C(N)=O)c2c(OCC(=O)O)cc(-c3ccccc3)nn2c1Cc1ccc(F)cc1 [Compound I-23]
melting point: 250 to 252 °C

molecule: CCc1c(C(=O)C(N)=O)c2c(OCC(=O)O)cc(C(C)C)nn2c1Cc1ccccc1 [Compound I-20]
melting point: 234 to 236 °C (dec.)

molecule: CCc1c(C(=O)C(N)=O)c2c(OCC(=O)OC)cc(C3CCCC3)nn2c1Cc1ccccc1 [Compound I-38]
melting point: 160 to 162 °C (dec.)

molecule: CCc1c(C(=O)C(N)=O)c2c(OCC(=O)O)cc(C3CCCCC3)nn2c1Cc1ccccc1 [Compound I-67]
melting point: 272 to 275 °C (dec.)

molecule: CCc1c(C(=O)C(N)=O)c2c(OCC(=O)OC)cc(-c3ccccc3)nn2c1Cc1ccccc1F [Compound I-15]
melting point: 244 to 246 °C

molecule: CCc1cc(OCC(=O)O)c2c(C(=O)C(N)=O)c(CC)c(Cc3ccccc3)n2n1 [Compound I-18]
melting point: 223 to 225 °C (dec.)

molecule: CCc1c(C(=O)C(N)=O)c2c(OCC(=O)O)cc(C)nn2c1Cc1cccc(Oc2ccccc2)c1 [Compound I-66]
melting point: 188 to 190 °C

molecule: CCc1c(C(=O)C(N)=O)c2c(OCC(=O)OC)cc(C3CCCCC3)nn2c1Cc1ccccc1 [Compound I-37]
melting point: 207 to 209 °C (dec.)

molecule: CCc1c(C(=O)C(N)=O)c2c(OCC(=O)OC)cc(-c3ccc(F)cc3)nn2c1Cc1ccc(F)cc1 [Compound I-32]
melting point: 274 to 276 °C (dec.)

molecule: COC(=O)COc1cc(Cc2ccccc2)nn2c(C)c(C)c(C(=O)C(N)=O)c12 [Compound I-51]
melting point: 199 to 201 °C

molecule: CCc1c(C(=O)C(N)=O)c2c(OCC(=O)O)cc(-c3ccccc3)nn2c1Cc1ccccc1 [Compound I-21]
melting point: 244 to 246 °C (dec.)

molecule: CCc1c(C(=O)C(N)=O)c2c(OCC(=O)O)cc(CN3CCN(C)CC3)nn2c1Cc1ccccc1 [Compound I-61]
melting point: 249 to 250 °C (dec.)

molecule: CCc1cc(OCC(=O)O)c2c(C(=O)C(N)=O)c(C)c(Cc3ccccc3)n2n1 [Compound I-70]
melting point: 200 to 201 °C
